Tested on: MOLM-13 cells
Assay: Cell viability assay (CellTiter-Glo) in MOLM-13 cells, alone or with gilteritinib
Format: cell-based
Details: Homo sapiens, MOLM-13, 72 h, MOLM-13 cells, with gilteritinib 20 nM, three days, CellTiter-Glo; read-out: MOLM-13 IC50 gilteritinib
pIC50: −log10 of the molar value.
MEASURED ATTRIBUTE: pIC50

Exam item: Tell me measured pIC50 for O=C(CN1CC(N2CCN(c3ccccn3)CC2)C1)NCc1ccc2c(c1)C(=O)N(C1CCC(=O)NC1=O)C2=O (stereo not shown) [GS-345] please.
Marked response: < 6.00

Exam item: Note pIC50 for the molecule shown: CN1CCN(c2cccc3ncc(-c4cnn(C5CCN(C(=O)CCCCCNc6ccc7c(c6)C(=O)N(C6CCC(=O)NC6=O)C7=O)CC5)c4)nc23)CC1 (stereo not shown) [GS-036]
Marked response: 7.00 to 8.00

Exam item: Identify measured pIC50 associated with O=C1CCC(N2C(=O)c3ccc(NC[C@H]4C[C@@H](n5cc(-c6cnc7ccc(C8CCOCC8)cc7n6)cn5)C4)cc3C2=O)C(=O)N1 (stereo partly shown) [GS-193]
Marked response: 6.00 to 7.00

Exam item: Please list pIC50 recorded for the molecule O=C1CCC(N2C(=O)c3ccc(NCCCCCC(=O)N4CCC(n5cc(-c6ccc7cccc(Br)c7n6)cn5)CC4)cc3C2=O)C(=O)N1 (stereo not shown) [GS-052]
Marked response: > 8.00
